Target: human KOP (Homo sapiens, UniProt P41145)
Construct: expressed in transfected cells; host or cells: CHO cells
Sequence (P41145 whole entry): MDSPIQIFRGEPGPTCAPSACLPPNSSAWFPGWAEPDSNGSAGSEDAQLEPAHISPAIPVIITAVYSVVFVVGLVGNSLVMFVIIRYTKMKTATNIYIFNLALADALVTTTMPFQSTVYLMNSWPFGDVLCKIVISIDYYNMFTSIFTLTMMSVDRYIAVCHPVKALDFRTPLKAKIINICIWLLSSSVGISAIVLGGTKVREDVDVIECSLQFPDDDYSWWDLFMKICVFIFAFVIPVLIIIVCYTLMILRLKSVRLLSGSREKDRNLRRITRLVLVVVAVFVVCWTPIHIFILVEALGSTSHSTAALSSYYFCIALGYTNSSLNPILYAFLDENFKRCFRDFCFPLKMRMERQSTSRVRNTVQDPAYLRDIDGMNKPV
Assay: cell-based
Details: efficacy (intrinsic activity) relative to dynorphin A; inactive = inactive up to 1 μM
Residues, ends and D or L forms follow the SMILES beside them.
Below is a list of entries, each paired with its recorded KOP α ± SEM value.
Form: value (number only, do not type unit).

Compound: CC[C@H](C)[C@H](NC(=O)[C@H](CCCNC(=N)N)NC(=O)[C@H](Cc1ccc(O)cc1)NC(=O)[C@H](Cc1ccc(O)cc1)NC(=O)[C@H](CCCNC(=N)N)NC(=O)CNC(=O)CNC(=O)CNC(=O)[C@@H]1CC(=O)NCCCC[C@@H](NC(=O)[C@@H](N)Cc2ccc(O)cc2)C(=O)N[C@@H](Cc2ccccc2)C(=O)N[C@@H](Cc2ccccc2)C(=O)N1)C(=O)N[C@@H](CCCCN)C(N)=O [KW-496] (HELM PEPTIDE1{Y.[dK].F.F.D.G.G.G.R.Y.Y.R.I.K.[am]}$PEPTIDE1,PEPTIDE1,2:R3-5:R3$$$V2.0)
Measured Result: 1.03

Q: Endpoint output: KOP α ± SEM of NC(=O)[C@@H]1CC(=O)NCCCC[C@@H](NC(=O)[C@@H](N)Cc2ccc(O)cc2)C(=O)N[C@@H](Cc2ccccc2)C(=O)N[C@@H](Cc2ccccc2)C(=O)N1 [RP-170, Tyr-c[D-Lys-Phe-Phe-Asp]-NH2, reference compound] (HELM PEPTIDE1{Y.[dK].F.F.D.[am]}$PEPTIDE1,PEPTIDE1,2:R3-5:R3$$$V2.0; N-terminus assumed) . Value?
A: 1.00

----------
Biological target: human DOP (Homo sapiens, UniProt P41143)
Sequence (P41143 whole entry): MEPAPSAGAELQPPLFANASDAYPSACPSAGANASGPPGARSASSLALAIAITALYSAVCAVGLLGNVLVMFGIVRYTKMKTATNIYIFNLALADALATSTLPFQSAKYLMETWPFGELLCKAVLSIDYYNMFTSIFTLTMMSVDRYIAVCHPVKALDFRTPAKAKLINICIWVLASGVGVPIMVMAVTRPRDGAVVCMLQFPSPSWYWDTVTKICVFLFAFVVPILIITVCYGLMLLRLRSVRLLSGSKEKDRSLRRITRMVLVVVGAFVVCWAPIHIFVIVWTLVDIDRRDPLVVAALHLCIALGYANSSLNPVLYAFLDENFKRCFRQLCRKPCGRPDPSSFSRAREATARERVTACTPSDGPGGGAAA
Assay type: cell-based
Parameters: expressed in transfected cells; host or cells: CHO cells
Details: efficacy (intrinsic activity) relative to DPDPE; inactive = inactive up to 1 μM
Residues, ends and D or L forms follow the SMILES beside them.

Molecule: NC(=O)[C@@H]1CC(=O)NCCCC[C@@H](NC(=O)[C@@H](N)Cc2ccc(O)cc2)C(=O)N[C@@H](Cc2ccccc2)C(=O)N[C@@H](Cc2ccccc2)C(=O)N1 [RP-170, Tyr-c[D-Lys-Phe-Phe-Asp]-NH2, reference compound] (HELM PEPTIDE1{Y.[dK].F.F.D.[am]}$PEPTIDE1,PEPTIDE1,2:R3-5:R3$$$V2.0; N-terminus assumed)
DOP α ± SEM: inactive

Molecule: CC[C@H](C)[C@H](NC(=O)[C@H](CCCNC(=N)N)NC(=O)[C@H](Cc1ccc(O)cc1)NC(=O)[C@H](Cc1ccc(O)cc1)NC(=O)[C@H](CCCNC(=N)N)NC(=O)CNC(=O)CNC(=O)CNC(=O)[C@@H]1CC(=O)NCCCC[C@@H](NC(=O)[C@@H](N)Cc2ccc(O)cc2)C(=O)N[C@@H](Cc2ccccc2)C(=O)N[C@@H](Cc2ccccc2)C(=O)N1)C(=O)N[C@@H](CCCCN)C(N)=O [KW-496] (HELM PEPTIDE1{Y.[dK].F.F.D.G.G.G.R.Y.Y.R.I.K.[am]}$PEPTIDE1,PEPTIDE1,2:R3-5:R3$$$V2.0)
DOP α ± SEM: inactive

Molecule: CC[C@H](C)[C@H](NC(=O)[C@H](CCCNC(=N)N)NC(=O)[C@H](Cc1ccc(O)cc1)NC(=O)[C@H](Cc1ccc(O)cc1)NC(=O)[C@H](CCCNC(=N)N)NC(C)=O)C(=O)N[C@@H](CCCCN)C(N)=O [Ac-RYYRIK-NH2, Ac-Arg-Tyr-Tyr-Arg-Ile-Lys-NH2]
DOP α ± SEM: inactive

Molecule: CC[C@H](C)[C@H](NC(=O)[C@H](CCCNC(=N)N)NC(=O)[C@H](Cc1ccc(O)cc1)NC(=O)[C@H](Cc1ccc(O)cc1)NC(=O)[C@H](CCCNC(=N)N)NC(=O)[C@@H]1CC(=O)NCCCC[C@@H](NC(=O)[C@@H](N)Cc2ccc(O)cc2)C(=O)N[C@@H](Cc2ccccc2)C(=O)N[C@@H](Cc2ccccc2)C(=O)N1)C(=O)N[C@@H](CCCCN)C(N)=O [KW-495] (HELM PEPTIDE1{Y.[dK].F.F.D.R.Y.Y.R.I.K.[am]}$PEPTIDE1,PEPTIDE1,2:R3-5:R3$$$V2.0; N-terminus assumed)
DOP α ± SEM: inactive

----------
Molecular target: human DOP (Homo sapiens)
Type: cell-based
Set-up: expressed in transfected cells; host or cells: CHO cells
Details: efficacy (intrinsic activity) relative to DPDPE; inactive = inactive up to 1 μM
Result Type: DOP α ± SEM
Form: value (number only, do not type unit).

Q: Endpoint output: DOP α ± SEM of CC[C@H](C)[C@H](NC(=O)[C@H](CCCNC(=N)N)NC(=O)[C@H](CCCNC(=N)N)NC(=O)[C@H](CC(C)C)NC(=O)[C@H](Cc1ccccc1)NC(=O)CNC(=O)CNC(=O)[C@@H](N)Cc1ccc(O)cc1)C(=O)N[C@@H](CCCNC(=N)N)C(=O)N1CCC[C@H]1C(=O)N[C@@H](CCCCN)C(=O)N[C@@H](CC(C)C)C(=O)N[C@@H](CCCCN)C(=O)N[C@@H](Cc1c[nH]c2ccccc12)C(=O)N[C@@H](CC(=O)O)C(=O)N[C@@H](CC(N)=O)C(=O)N[C@@H](CCC(N)=O)C(=O)O [dynorphin A, reference compound] . Value?
A: 1.00

----------
Target: human DOP (Homo sapiens, UniProt P41143)
Assay type: cell-based
Parameters: expressed in transfected cells; host or cells: CHO cells
Conditions: agonist potency, calcium mobilization; inactive = inactive up to 1 μM
Residues, ends and D or L forms follow the SMILES beside them.
Result Type: DOP pEC50 (CL95%)

Compound: NC(=O)[C@@H]1CC(=O)NCCCC[C@@H](NC(=O)[C@@H](N)Cc2ccc(O)cc2)C(=O)N[C@@H](Cc2ccccc2)C(=O)N[C@@H](Cc2ccccc2)C(=O)N1 [RP-170, Tyr-c[D-Lys-Phe-Phe-Asp]-NH2, reference compound] (HELM PEPTIDE1{Y.[dK].F.F.D.[am]}$PEPTIDE1,PEPTIDE1,2:R3-5:R3$$$V2.0; N-terminus assumed)
Result Type: DOP pEC50 (CL95%)
Measured Result: inactive
//
Compound: CC[C@H](C)[C@H](NC(=O)[C@H](CCCNC(=N)N)NC(=O)[C@H](Cc1ccc(O)cc1)NC(=O)[C@H](Cc1ccc(O)cc1)NC(=O)[C@H](CCCNC(=N)N)NC(C)=O)C(=O)N[C@@H](CCCCN)C(N)=O
Result Type: DOP pEC50 (CL95%)
Measured Result: inactive
//
Compound: CC[C@H](C)[C@H](NC(=O)[C@H](CCCNC(=N)N)NC(=O)[C@H](Cc1ccc(O)cc1)NC(=O)[C@H](Cc1ccc(O)cc1)NC(=O)[C@H](CCCNC(=N)N)NC(=O)CNC(=O)CNC(=O)CNC(=O)[C@@H]1CC(=O)NCCCC[C@@H](NC(=O)[C@@H](N)Cc2ccc(O)cc2)C(=O)N[C@@H](Cc2ccccc2)C(=O)N[C@@H](Cc2ccccc2)C(=O)N1)C(=O)N[C@@H](CCCCN)C(N)=O [KW-496] (HELM PEPTIDE1{Y.[dK].F.F.D.G.G.G.R.Y.Y.R.I.K.[am]}$PEPTIDE1,PEPTIDE1,2:R3-5:R3$$$V2.0)
Result Type: DOP pEC50 (CL95%)
Measured Result: inactive
//
Compound: CC[C@H](C)[C@H](NC(=O)[C@H](CCCNC(=N)N)NC(=O)[C@H](Cc1ccc(O)cc1)NC(=O)[C@H](Cc1ccc(O)cc1)NC(=O)[C@H](CCCNC(=N)N)NC(=O)[C@@H]1CC(=O)NCCCC[C@@H](NC(=O)[C@@H](N)Cc2ccc(O)cc2)C(=O)N[C@@H](Cc2ccccc2)C(=O)N[C@@H](Cc2ccccc2)C(=O)N1)C(=O)N[C@@H](CCCCN)C(N)=O [KW-495] (HELM PEPTIDE1{Y.[dK].F.F.D.R.Y.Y.R.I.K.[am]}$PEPTIDE1,PEPTIDE1,2:R3-5:R3$$$V2.0; N-terminus assumed)
Result Type: DOP pEC50 (CL95%)
Measured Result: inactive
